# System: HOP-92 NSCLC
# method notes: NCI tumour cell line growth inhibition, 48 h
assay metric: GI50

# input Can you look up GI50 on HOP-92 NSCLC for O=C(Nc1ccccc1)Nc1cccc(Oc2nnc(Cl)c3ccccc23)c1 ?
# output 3.09 µM

# input Now try COC1=C(Br)C(=O)C2=C(C1=O)C1C3=C(C(=O)C=CC3=O)C2c2ccccc21 (stereo not given) .
# output 2.51 µM

# input Another: Cn1c(=O)c(Oc2ccccc2)cc2cnc(NC3CCOCC3)nc21
# output > 25 µM

***
# input What reported GI50 corresponds to Cc1[nH]nc2c1N=C(c1ccccc1Cl)c1cc([N+](=O)[O-])ccc1N2 on HOP-92 NSCLC?
# output > 18.9 µM

# input Lookup Cc1cc2cn3c4cccnc4[nH]c(=O)c3c2cc1C
# output 1.24 µM

----------
Below, each entry is listed with its recorded TGI.
# System: A549 NSCLC
# method notes: NCI tumour cell line growth inhibition, 48 h

Would you please look over these solved cases?
# input For the compound COC(=O)C1C(OCc2ccccc2)C2CCC1(OC)C=C2C (centres undefined) , what TGI is on record?
# output > 100 µM

# input Same question, c1ccc(C(CCN2CC3CCC(CC3)C2)c2ccccc2)cc1 this time
# output > 100 µM

# input Same thing, different compound: C=CCn1cc(C(=O)NC(=O)NCCCCCOC(=O)CCCCCCCCCCC(=O)OCCCCCNC(=O)NC(=O)c2cn(CC=C)c(=O)n(C)c2=O)c(=O)n(C)c1=O
# output > 100 µM

Further cases:
# input Data request, read-out TGI, for CCOc1ccc2nc(NC(NC(=O)c3cccnc3)(C(F)(F)F)C(F)(F)F)sc2c1
# output > 100 µM

----------
Let's look at some compounds and their measured GI50.
# Test system: SN12C renal
# method notes: NCI tumour cell line growth inhibition, 48 h
*1 amine or outer side, *2 acyl side, *3 side chain or, on linkers, in order; H or OH if unused. Where a SMILES comes first, the peptide text is derived from it. [ ]: non-standard residue; d: D form. ξ: configuration not given here. X21 = CC[C@@H](C)C(N[*:1])C(=O)[*:2]; ξR = N=C(N)NCCCC(N)C(=O)O; ξI = CCC(C)C(N)C(=O)O; ξL = CC(C)CC(N)C(=O)O; ξK = NCCCCC(N)C(=O)O; ξV = CC(C)C(N)C(=O)O; ξA = CC(N)C(=O)O

Below, 3 compounds whose answers are already recorded.
# input Any idea what its GI50 is? The compound is COc1ccccc1/C=C/C(=O)/C=C/c1ccccc1OC
# output 2060 nM

# input Next record, please: O=C1NN(c2ccccc2)C(=O)/C1=C/c1ccc(Br)o1
# output 951 nM

# input // same read-out, input: CCC(C)C1NC(=O)C(CC(C)C)NC(=O)C(C)NC(=O)C(C(C)C)NC(=O)C(CCCCN)NC(=O)C(CC(C)C)NC(=O)C(C(C)C)NC(=O)[C@H](C)NC(=O)C(C(C)CC)NC(=O)C(CCCN=C(N)N)NC(=O)C(CCCCN)NC(=O)C(CCCN=C(N)N)NC(=O)C(CCCCN)NC(=O)C([C@H](C)CC)NC(=O)C(CCCCN)NC1=O (some centres not stated) (cyclo(A[ξV][ξL][ξK][ξV][ξA][ξL][ξI][ξK][X21][ξK][ξR][ξK][ξR][ξI]))
# output 1370 nM

---
# input # lookup: GI50 of COc1ccc(N(/C=C/C(=O)C(F)(F)F)CC(=O)c2ccc(Cl)c(Cl)c2)cc1
# output 14500 nM

# input And then COC1=C(Br)C(=O)C2=C(C1=O)C1C3=C(C(=O)C=CC3=O)C2c2ccccc21 (configuration not stated) , what is it?
# output 11000 nM

# input Try the compound Cc1[nH]nc2c1N=C(c1ccccc1Cl)c1cc([N+](=O)[O-])ccc1N2
# output 3290 nM

# input Note, next up: N#Cc1ccc2c(c1)C(=O)c1c-2n(CCCN)c(=O)c2cc([N+](=O)[O-])ccc12
# output 261 nM

----------
In this section we review reported TGI values for a set of compounds.
# System: HCT-116 colon
# method notes: NCI tumour cell line growth inhibition, 48 h

// solved cases for TGI follow
# input What value of TGI has been recorded for this entry: Clc1c(C(Cl)(Cl)Cl)nsc1N1CCCCC1
# output 76.6 µM

# input One more compound: CC(NC(C#N)CC12CC3CC(CC(C3)C1)C2)c1ccccc1 (configuration not stated)
# output > 100 µM

***
# input What does the record list as TGI for O=C1c2ccccc2C(=O)c2c(O)ccc(O)c21 ?
# output > 100 µM

# input What would you report for O=C(O)C1CCCCC1c1c2ccc(=O)cc-2oc2cc(O)ccc12 (configuration not stated) ?
# output > 100 µM

# input Would you kindly repeat that for CC(=O)N1c2ccccc2C(C)C1c1[nH]c2ccccc2c1C (configuration not stated) ?
# output 41.6 µM

# input Likewise for CC(NC(=O)C(N)CC(=O)O)NC(=O)N(C)C(C)(C)C (configuration not stated) ?
# output > 100 µM

----------
Here the recorded TGI is given for each entry.
# System: DMS 114 small cell lung
# method notes: NCI tumour cell line growth inhibition, 48 h

Some compounds with recorded TGI:
# input Query for DMS 114 small cell lung: what TGI does the record show for NC1(C(=O)O)CCCC1 ?
# output > 625 µM

# input // next record Cc1ccc(Oc2ccc([N+](=O)[O-])cc2[N+](=O)[O-])c(C)c1
# output > 100 µM

New cases:
# input Find TGI (DMS 114 small cell lung) for the entry COc1ccc(-c2c(N)[n+]([O-])c3ccccc3[n+]2[O-])cc1OC
# output > 100 µM

----------
# Tested on: 786-0 renal
# method notes: NCI tumour cell line growth inhibition, 48 h
assay metric: TGI (µM)
Form entry: value (µM) — number only.

# input Record request: TGI value, item CC(=O)/C=C(\O)c1[nH]c(C(=O)O)cc1C1CCN(Cc2ccccc2)C1=O (stereo not given)
# output 47.6

# input // query: O=C1CCS/C(=N\S(=O)(=O)c2ccc(N3N=C4c5ccccc5CC4C3c3cccs3)cc2)N1C(=O)c1ccccc1 (stereo not given)
# output 27.2

# input Please answer likewise for Clc1c(C(Cl)(Cl)Cl)nsc1N1CCCCC1
# output 39.2

# input // same read-out, input: NC(=O)c1ccc2nc3c(n2c1)C(=O)C(=O)c1ccccc1-3
# output 2.99

# input And for O=C(N/N=C\c1ccccc1)Nc1cccc2ccccc12 ?
# output 30.1

# input Here is the next compound: N#C/C(=C\c1ccc(Br)cc1)n1nnc2ccccc21
# output 1.79

# input What would you report for CC(C)C1CC[C@H](C)C[C@@H]1OC(=O)C(C(=O)O[C@H]1C[C@@H](C)CCC1C(C)C)C(O)[C@@H]1OC(C)(C)O[C@H]1C1COC(C)(C)O1 (stereo not given in full) ?
# output 31.7

# input Now try Cc1cc2cn3c4cccnc4[nH]c(=O)c3c2cc1C .
# output 3.33

# input Likewise for O=C(COc1cccc(/C=C2\CSc3ccccc3C2=O)c1)c1ccc(Cl)cc1 ?
# output 2.89

# input Note, next up: CS(=O)(=O)OCCN(CCOS(C)(=O)=O)c1ccc(C=O)cc1
# output 7.86

# input Do the same for COc1ccc2cc(C(=O)NCCCNC(=O)c3ccc4cc(OC)ccc4c3)ccc2c1 please
# output 57.5

# input Then what about the compound CC(=O)OCC1OC(O/C=C(\CN=[N+]=[N-])C(C)=O)C(OC(C)=O)C(OC(C)=O)C1OC(C)=O (stereo not given) ?
# output 18.2

----------
# Tested on: HL-60(TB) leukemia
# method notes: NCI tumour cell line growth inhibition, 48 h
assay metric: TGI

# input GET /values?readout=TGI&item= COC(=O)[C@H](Cc1ccccc1)NP(=O)(O)OCC1C=CC(n2cc(C)c(=O)[nH]c2=O)O1 (stereo partly specified)
# output > 100 µM

---
# input Returns the measured TGI for the input compound. Input: Clc1nc(Cl)c(CBr)c(Cl)n1
# output > 100 µM

# input Likewise for CSc1nc2c(=O)n(-c3ccccc3)c(=S)n(-c3ccccc3)c2s1 ?
# output > 100 µM

# input // same read-out, input: NNC(=O)/C(NC(=O)c1ccccc1)=C(\N)c1ccc(Cl)cc1
# output > 100 µM

# input Can you handle O=C(COc1cccc(/C=C2\CSc3ccccc3C2=O)c1)c1ccc(Cl)cc1 next?
# output > 21 µM

# input Another compound to check: CCc1nc2ccc(C(F)(F)F)cc2[nH]c1=O
# output > 100 µM

----------
# Tested on: MOLT-4 leukemia
# method notes: NCI tumour cell line growth inhibition, 48 h
assay metric: TGI

Answered cases to consult:
# input Would you mind telling me what TGI value was observed for CC(=O)O[C@H]1C[C@H]2C(=S)Nc3ccccc3C(=S)N2C1 ?
# output > 100 µM

# input O=C1CS/C(=N\S(=O)(=O)c2ccc(N3N=C4c5ccccc5CC4C3c3ccc(Cl)cc3)cc2)N1c1ccccc1 (configuration not stated) ?
# output 40.7 µM

# input Try the compound CC(NC(C#N)CC12CC3CC(CC(C3)C1)C2)c1ccccc1 (configuration not stated)
# output > 100 µM

# input Now try NNC(=O)/C(NC(=O)c1ccccc1)=C(\N)c1ccc(Cl)cc1 .
# output > 100 µM

# input S=c1nc(N2CCCCC2)ss1 , same question.
# output 33.3 µM

***
# input Any idea what TGI was measured for CCOC(=O)c1cc(C(=O)c2cc(OC)c(OC)c(OC)c2)n2ccccc12 ?
# output > 100 µM

# input Next: Clc1nc(Cl)c(CBr)c(Cl)n1
# output > 23 µM

Data credit: PubChem BioAssay (NCI)
